Source: paper PMC10447463

Assay overview: Aggregate analysis by widefield fluorescence microscopy
Type: physicochemical
Applied conditions: Fig S8 panels A, C
Readout: Log 10 Number of aggregates in 3 * (1330 µm *1330 µm)

The examples below pair each entry with its known result.
{"columns": ["Substance", "Result"],
 "data": [
  ["CKIKQII [MG4a]", 1.8789],
  ["CKFKQFF [CK15]", 0.7533],
  ["CKAKAQANMWQ [BL8]", 0.8016],
  ["CKFKFQFW [TM72]", 2.713]
]}

Report Log 10 Number of aggregates in 3 * (1330 µm *1330 µm) for each item below.
1. CKWKWQW [KB4]
2. HHHHKIKIQINMYYYY [TM16]
3. KIKIQIC [TM112 / CN11]

Result block:
1: 1.94; 2: 2.3686; 3: 1.912

---

Assay overview: Turbidity, derived count rate of scattered light
Format: physicochemical
Applied conditions: derived count rate of scattered light; mean, std deviation in separate column
Mark fulfilled for reported Zeta Count Rate / kcps of 2000 kcps or greater; mark not fulfilled for anything smaller.

Example cases with answers are listed next.
{"columns": ["Substance", "Category"],
 "data": [
  ["KFKFQFNM [BL6a]", "not fulfilled"],
  ["KIKIKIKIWWWW [TM12]", "fulfilled"],
  ["CKAKAQA [TM155]", "not fulfilled"],
  ["QCKIKIQINM [CK2]", "fulfilled"]
]}

Query block: Please check the record QCKFKQFF [CK12] and state if its Zeta Count Rate / kcps is at or above 2000 kcps.
Result block: not fulfilled

Query block: Please check the record QCKIKQIINMWQ [reference compound] and state if its Zeta Count Rate / kcps is at or above 2000 kcps.
Result block: fulfilled

Query block: Please check the record RGDCKIKIQINM [TM45] and state if its Zeta Count Rate / kcps is at or above 2000 kcps.
Result block: not fulfilled

Query block: Please check the record CKIKIQIII [AR0 / F19] and state if its Zeta Count Rate / kcps is at or above 2000 kcps.
Result block: fulfilled

---

Assay overview: Zeta-potential measurement
Type: physicochemical
Applied conditions: mean, Std Zeta in next column
Readout: Zeta Pot. / mV (mV)
Answers are plain numbers, in mV.

The examples below pair each entry with its known result.
{"columns": ["Substance", "Zeta Pot. / mV (mV)"],
 "data": [
  ["QCKFKQFFNMWQ [CK10]", 9.587],
  ["KFKFQFNM [BL6a]", 13.9],
  ["CKIKIQI [MG3b]", 12.8],
  ["CKAKAQANM [BL9]", -7.773],
  ["KFKFKFQF [TG18]", 15.2],
  ["CKIKIQINMWQ [MG1]", 13.87]
]}

Report Zeta Pot. / mV for each item below.
1. CRFRFQF [CN10]
2. CKYKYQY [KB2]
3. RGDCKFKFQF [TM64/ CN15]
4. CKAKAQANMWQ [BL8]

Result block:
1. -2.097
2. 1.49
3. 13.87
4. 0.7373

---

Assay type: physicochemical
Parameters: key: 1 = fibrils present; 0 non-fibrillar structures
Applied conditions: TEM; 1 = fibrils present, 0 = non-fibrillar
Can you tell me Fibril for the items I'm about to list?

{"columns": ["Substance", "Fibril"],
 "data": [
  ["QCKIKIQI", 1],
  ["HGEHGEHGE", 0],
  ["EIKIQINM", 1]
]}

Report Fibril for each item below.
1. KVKVQVVV
2. RGEKIKIQINM
3. CKFKFQFNMW
4. HGEHGE

Result block:
1: 1; 2: 1; 3: 1; 4: 0

Report Fibril for each item below.
1. HRRHFRHKITKKK
2. KFKFQFW
3. KAKAQA
4. CKFKFQF
5. EIEIQINM

Result block:
1: 0; 2: 1; 3: 0; 4: 1; 5: 1

Report Fibril for each item below.
1. KIKIQIMWNQ
2. KIKQIINM
3. CETMYDKILKNLSRSR

Result block:
1. 1
2. 1
3. 0

---

Type: physicochemical
Applied conditions: ThT category; 1 if Rel. ThT >2
Readout: ThT Cat,

{"columns": ["Substance", "ThT Cat,"],
 "data": [
  ["IKVAVKIKIQINM", "0 (ThT-inactive (N-Fold <2))"],
  ["QCKAKAQANMWQ", "0 (ThT-inactive (N-Fold <2))"],
  ["QCKFKQFF", "1 (ThT. Cat is 1, if Rel. ThT >2)"]
]}

Report ThT Cat, for each item below.
1. CEIEIQI
2. KFKFQFNM

Result block:
1. 1 (ThT. Cat is 1, if Rel. ThT >2)
2. 0 (ThT-inactive (N-Fold <2))

Report ThT Cat, for each item below.
1. HGEHGEHGE
2. QCKFKFQFNMWQ
3. KIKIKIKIWWWW
4. CKIKIQIII
5. CKFKFQF
6. RGECKFKFQF
7. HHHHEIEIEIEI

Result block:
1. 0 (ThT-inactive (N-Fold <2))
2. 0 (ThT-inactive (N-Fold <2))
3. 1 (ThT. Cat is 1, if Rel. ThT >2)
4. 1 (ThT. Cat is 1, if Rel. ThT >2)
5. 1 (ThT. Cat is 1, if Rel. ThT >2)
6. 1 (ThT. Cat is 1, if Rel. ThT >2)
7. 1 (ThT. Cat is 1, if Rel. ThT >2)

Report ThT Cat, for each item below.
1. KAKAQANMWQ
2. CETMYDKILKNLSRSR

Result block:
1. 0 (ThT-inactive (N-Fold <2))
2. 0 (ThT-inactive (N-Fold <2))

Report ThT Cat, for each item below.
1. HGDKCHGDKC
2. KVKVQVV
3. KYKYQY

Result block:
1: 0 (ThT-inactive (N-Fold <2)); 2: 0 (ThT-inactive (N-Fold <2)); 3: 1 (ThT. Cat is 1, if Rel. ThT >2)

---

Assay overview: Turbidity, derived count rate of scattered light
Assay type: physicochemical
Applied conditions: turbidity, derived count rate of scattered light, log10; data of Figure 2D
Readout: Log10 Count Rate
Answers are plain numbers.

The examples below pair each entry with its known result.
{"columns": ["Substance", "Log10 Count Rate"],
 "data": [
  ["MKIKIQINM", 2.9918],
  ["KIKIQII", 3.017],
  ["KIKIKIQI", 3]
]}

Query block: # get_value(readout='Log10 Count Rate', item= CHLHLQL )
Result block: 3.062

---

Can you tell me Zeta Count Rate Category for the items I'm about to list?
Assay overview: Turbidity, derived count rate of scattered light
Format: physicochemical
Applied conditions: category 1/0, no key printed
Numbers only.

The examples below pair each entry with its known result.
{"columns": ["Substance", "Result number"],
 "data": [
  ["MKIKIQINM [TM41]", 1],
  ["CKFKFQF [BL4]", 1],
  ["KAKAQA [JJA2 / TM153]", 0],
  ["KAKAQANM [TM152]", 0],
  ["CRFRVPF [CN8]", 0]
]}

Report Zeta Count Rate Category for each item below.
1. QCKAKAQANMWQ [CK22]
2. KIKIQI [JJA4]
3. CRFRFQF [CN10]

Result block:
[1, 1, 1]

Query block: # get_value(readout='Zeta Count Rate Category', item= CKWKWQW [KB4] )
Result block: 1

---

Assay overview: Turbidity, derived count rate of scattered light
Assay type: physicochemical
Applied conditions: log10 of derived count rate of scattered light (turbidity)
Mark class 1 for reported Log10 Count Rate of 3 or greater; mark class 0 for anything smaller.

Query block: Please check the record CKIKQIINMWQ and state if its Log10 Count Rate is at or above 3.
Result block: class 1

Query block: Please check the record CSISIQINM and state if its Log10 Count Rate is at or above 3.
Result block: class 1

Query block: Please check the record KIEIQINM and state if its Log10 Count Rate is at or above 3.
Result block: class 0

Query block: Please check the record CKIKIQINMWQ and state if its Log10 Count Rate is at or above 3.
Result block: class 1

Query block: Please check the record HHHHEIEIEIEI and state if its Log10 Count Rate is at or above 3.
Result block: class 0

Query block: Please check the record KIKIKIKIWW and state if its Log10 Count Rate is at or above 3.
Result block: class 1

Query block: Please check the record EIEIQINMWQ and state if its Log10 Count Rate is at or above 3.
Result block: class 1

Query block: Please check the record KIKIKIKIWWWW and state if its Log10 Count Rate is at or above 3.
Result block: class 1

Query block: Please check the record RGDSKIKIQIC and state if its Log10 Count Rate is at or above 3.
Result block: class 1

Query block: Please check the record CEFEFQFNMWQ and state if its Log10 Count Rate is at or above 3.
Result block: class 0

Query block: Please check the record RGDSGGGGGGKIKIQIC and state if its Log10 Count Rate is at or above 3.
Result block: class 1

Query block: Please check the record HHHHKAKAKAKAYYYY and state if its Log10 Count Rate is at or above 3.
Result block: class 0

Query block: Please check the record KAKAQANM and state if its Log10 Count Rate is at or above 3.
Result block: class 0

Query block: Please check the record CKIKQII and state if its Log10 Count Rate is at or above 3.
Result block: class 0
